# Test system: K-562
# STUDY CONDITIONS: read-out: LC50; K-562 (Leukemia), 48 hours, SRB
PARAMETER MEASURED: CC50

For this molecule ( CC1(C)C=Cc2c(ccc3c4c(n(O)c23)C(C)(C)C2CC35CCCN3C(=O)C2(NC5=O)C4SCC(NC(=O)CCC(N)C(=O)O)C(=O)NCC(=O)O)O1 (stereo not shown) ), measured CC50 is > 50 µM

====

# Test system: DU-145
# STUDY CONDITIONS: DU-145 (Prostate Cancer), 48 hours, SRB
PARAMETER MEASURED: TGI (nM)
Use nM as the unit, but write only the number.

Some compounds with recorded TGI:
[2H]On1c2c(c3ccc4c(c31)C=CC(C)(C)O4)C(OC([2H])([2H])[2H])[C@@]13NC(=O)C4(CCCN4C1=O)CC3C2(C)C (stereo partly shown) [Deuterated Methanol Adduct] = 3120
Cc1cc(C)cc(-c2ccc3c(c2)[N+]([O-])=C2C3=C[C@@]34NC(=O)C5(CCCN5C3=O)CC4C2(C)C)c1 (stereo partly shown) [Biphenyl Analogue] = 813
CC1(C)C=Cc2c(ccc3c4c(n(O)c23)C(C)(C)C2CC35CCCN3C(=O)C2(NC5=O)C4SCC(NC(=O)CCC(N)C(=O)O)C(=O)NCC(=O)O)O1 (stereo not shown) [Glutathione Adduct] = 2650

Next compound, please.
For this compound ( CN(C)c1cccc2c(S(=O)(=O)NCCCCCCCCCCOc3ccc4c(c3)[N+]([O-])=C3C4=C[C@@]45NC(=O)C6(CCCN6C4=O)CC5C3(C)C)cccc12 (stereo partly shown) [Dansyl Analogue] ), measured TGI is 706
